// data source = PubChem BioAssay (NCI)

System: MDA-MB-231 breast
Assay: NCI tumour cell line growth inhibition, 48 h
Where a SMILES comes first, the peptide text is derived from it. [ ]: non-standard residue; d: D form. The star is where a group is joined. Iva = CC[C](C)(N)C(=O)O; Boc = CC(C)(C)OC(=O)*; X52 = C1CCC(=NO*)C1
readout-name: TGI

Provide one value: measured TGI of COC(=O)CC[C@]1(C)O[C@H]2[C@H]([C@@H](C)CCCC(C)=O)OC(=O)[C@@H]2C[C@H]1O
> 100 µM

Provide one value: measured TGI of O=C1NC(=O)C(c2ccccc2Cl)=C1Nc1cc(Cl)c(O)c(Cl)c1
> 25 µM

Provide one value: measured TGI of O=C1c2ccccc2CN1c1ccc(OCCN2CCCCC2)cc1
> 10 µM

Provide one value: measured TGI of CCC(C)(NC(=O)C(C)NC(=O)OC(C)(C)C)C(=O)NC(C)C(=O)NC(C)(CC)C(=O)ON=C1CCCC1 (stereo not drawn) (Boc-A[Iva]A[Iva]-X52; configuration not given here)
> 100 µM

Provide one value: measured TGI of O=C1c2ccccc2C(=O)N1CC1S(=O)(=O)OCCOS1(=O)=O
> 100 µM

Provide one value: measured TGI of Cc1cc(=O)oc2c(C)c(O)ccc12
> 100 µM

Provide one value: measured TGI of COc1ccc2nccc(SCC(=O)O)c2c1
> 100 µM

Provide one value: measured TGI of CCOC(=O)CCC(NC(=O)c1ccc(Oc2nc3ccccc3nc2-c2ccccc2)cc1)C(=O)OCC (stereo not drawn)
65.9 µM

Provide one value: measured TGI of COC(=O)[C@]12CC[C@H]3CC[C@H]([C@H]31)[C@H](c1ccccc1)N2
30.6 µM

Provide one value: measured TGI of CC(=O)[C@@H]1C/C(=C\OCc2ccccc2)O[C@H]1C
> 100 µM

Provide one value: measured TGI of CCO/C=N\c1c(C#N)c(-c2ccc(Cl)cc2)cn1-c1ccc(C)cc1
> 100 µM

Provide one value: measured TGI of O=C(N/N=C/c1c(-c2ccccc2)no[n+]1[O-])N1CCOCC1
> 100 µM

Provide one value: measured TGI of CCN1C(=O)C(=C/C=C/C=C2/N(C)c3ccccc3C2(C)C)C(=O)N(CC)C1=S
> 100 µM

Provide one value: measured TGI of CCC(C(=O)C(=O)C(CC)P1(=O)OC(C)(C)CN1C(C)(C)C)P1(=O)OC(C)(C)CN1C(C)(C)C (stereo not drawn)
> 100 µM

Provide one value: measured TGI of CN1C/C(=C\c2cccs2)C2=NN(C)C(c3cccs3)C2C1 (stereo not drawn)
> 100 µM

Provide one value: measured TGI of CCCCN1CN2C(=O)C(C(=O)OCC)C(=O)c3sc4nc(SC)nc1c4c32 (stereo not drawn)
32.6 µM

Provide one value: measured TGI of Cc1cc(O)cc2c1[C@]1(C)CCC3C(C)(C)CCC[C@]3(C)[C@H]1C2 (stereo partly drawn)
38.5 µM

Provide one value: measured TGI of Oc1cc2c3c(c1)CCCN3CCC2
> 10 µM

Provide one value: measured TGI of O=C(O)C1CCCCC1C(=O)Nn1cnnc1 (stereo not drawn)
> 100 µM

Provide one value: measured TGI of COc1c(OC(C)C)c(OC(C)C)c2oc(=O)n3c2c1C(c1ccccc1-n1c(C)ccc1C)C=C3 (stereo not drawn)
> 100 µM

Provide one value: measured TGI of C/C(=N\Nc1cc(C)c2ccccc2n1)c1ccccn1
1.66 µM

Provide one value: measured TGI of C[C@]12CC[C@@H]3c4cc(-c5ccc(F)cc5)c(O)cc4CC[C@H]3[C@@H]1CC[C@@H]2O
23.9 µM

Provide one value: measured TGI of CSC1=Nc2ccccc2-c2nc3ccccc3cc2C1
> 100 µM

Provide one value: measured TGI of O=c1ccs[nH]1
28.6 µM

Provide one value: measured TGI of C=C1C(C2(C)C(OC(C)=O)CC(=O)OC(C)(COC(C)=O)C2CC(=O)OC)C(OC=O)C(OC(=O)C(O)C(C)CC)C2(C)C(c3ccoc3)CC(=O)C12O (stereo not drawn)
> 100 µM

Provide one value: measured TGI of COc1ccc(-c2c3c(cc4cc5c(cc24)OCO5)C(=O)OC3)cc1OC
25.4 µM

Provide one value: measured TGI of CC(C)(Oc1ccccc1)C(=O)Sc1c(-c2ccccc2)c(=O)n(-c2ccccc2)c(=S)n1-c1ccccc1
73.8 µM

Provide one value: measured TGI of C#CC1(OC(C)=O)CCC2C3CC=C4C=C(OC(C)=O)CCC4(C)C3CCC21C (stereo not drawn)
58.3 µM

Provide one value: measured TGI of Cc1cc(C)c(S(=O)(=O)N2CCCN(S(=O)(=O)c3c(C)cc(C)cc3C)OCCCO2)c(C)c1
> 100 µM

Provide one value: measured TGI of CN=c1c2c(c3[nH]c4ccccc4c4cnc1c34)NCCC2=O
> 10 µM

Provide one value: measured TGI of Cc1cc(C)nc(NS(=O)(=O)c2ccc(NNc3c4ccccc4nc4c(C(=O)Nc5ccc(S(N)(=O)=O)cc5)cccc34)cc2)n1
89 µM

Provide one value: measured TGI of CC(C)(C)OCC1NC(=O)[C@@H]2Cc3c([nH]c4ccccc34)C(c3ccccc3)N2C1=O (stereo partly drawn)
> 50 µM

Provide one value: measured TGI of N#Cc1ccc2c(c1)C(=O)c1c-2n(CCCCl)c(=O)c2cc([N+](=O)[O-])ccc12
> 100 µM
